# Tested on: human P-glycoprotein (PGP)
# TEST_NAME: Bidirectional digoxin Pgp transport across MDR-MDCK monolayers
# CONDITION_DETAILS: dog, MDCK-MDR1, pH 7.4, Pgp transport, Papp A->B, shipped, 0.5% agarose medium basolateral only; assayed 7 D

SMILES_NOTATION	EXPERIMENTAL_SYSTEM	Papp A→B at 120 min, 10 µM (×10⁻⁶ cm/s)
C[C@H]1O[C@@H](O[C@H]2[C@@H](O)C[C@H](O[C@H]3[C@@H](O)C[C@H](O[C@H]4CC[C@@]5(C)[C@H](CC[C@@H]6[C@@H]5C[C@@H](O)[C@]5(C)[C@@H](C7=CC(=O)OC7)CC[C@]65O)C4)O[C@@H]3C)O[C@@H]2C)C[C@H](O)[C@@H]1O	human P-glycoprotein (PGP)	0.06

---

# EXPERIMENTAL_SYSTEM: UniProt P08183
# Sequence (P08183 whole entry): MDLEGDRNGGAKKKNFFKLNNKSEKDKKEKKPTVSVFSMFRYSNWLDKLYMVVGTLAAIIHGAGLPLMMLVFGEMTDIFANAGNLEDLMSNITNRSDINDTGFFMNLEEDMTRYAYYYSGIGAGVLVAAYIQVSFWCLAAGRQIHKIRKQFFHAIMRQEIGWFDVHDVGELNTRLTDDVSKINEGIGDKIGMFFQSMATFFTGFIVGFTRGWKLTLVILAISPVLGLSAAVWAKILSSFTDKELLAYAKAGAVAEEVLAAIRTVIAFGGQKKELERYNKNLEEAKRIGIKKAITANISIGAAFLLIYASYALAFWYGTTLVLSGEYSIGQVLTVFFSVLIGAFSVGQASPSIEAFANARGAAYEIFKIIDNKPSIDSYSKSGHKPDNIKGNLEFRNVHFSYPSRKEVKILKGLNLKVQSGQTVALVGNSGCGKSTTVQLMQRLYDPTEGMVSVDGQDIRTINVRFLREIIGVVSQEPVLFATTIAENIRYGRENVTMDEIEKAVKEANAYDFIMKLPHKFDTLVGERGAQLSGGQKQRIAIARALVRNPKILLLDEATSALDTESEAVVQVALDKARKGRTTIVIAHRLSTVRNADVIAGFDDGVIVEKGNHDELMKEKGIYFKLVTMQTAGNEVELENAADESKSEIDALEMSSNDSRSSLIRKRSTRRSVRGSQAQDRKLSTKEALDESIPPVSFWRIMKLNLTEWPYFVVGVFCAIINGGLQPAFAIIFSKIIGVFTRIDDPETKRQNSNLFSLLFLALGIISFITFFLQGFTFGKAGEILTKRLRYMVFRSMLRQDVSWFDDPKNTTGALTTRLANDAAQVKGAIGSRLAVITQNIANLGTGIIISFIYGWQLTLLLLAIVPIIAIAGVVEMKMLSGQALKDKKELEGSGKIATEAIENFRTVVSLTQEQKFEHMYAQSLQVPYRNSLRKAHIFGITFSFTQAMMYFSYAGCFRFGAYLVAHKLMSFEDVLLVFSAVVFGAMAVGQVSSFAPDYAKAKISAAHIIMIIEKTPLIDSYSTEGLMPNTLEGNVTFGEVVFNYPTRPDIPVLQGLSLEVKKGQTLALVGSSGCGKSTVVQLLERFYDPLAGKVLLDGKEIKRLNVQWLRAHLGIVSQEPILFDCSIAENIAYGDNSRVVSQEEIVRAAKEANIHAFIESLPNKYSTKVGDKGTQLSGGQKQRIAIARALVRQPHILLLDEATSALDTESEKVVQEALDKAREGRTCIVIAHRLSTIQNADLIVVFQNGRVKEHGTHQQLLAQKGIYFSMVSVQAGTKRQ
# TEST_NAME: Bidirectional digoxin Pgp transport across C2BBe1 monolayers
# CONDITION_DETAILS: Caco-2, pH 7.4

MOLECULE	EXPERIMENTAL_SYSTEM	Papp B→A at 2 h, 10 µM, ×10⁻⁶ cm/s
C[C@H]1O[C@@H](O[C@H]2[C@@H](O)C[C@H](O[C@H]3[C@@H](O)C[C@H](O[C@H]4CC[C@@]5(C)[C@H](CC[C@@H]6[C@@H]5C[C@@H](O)[C@]5(C)[C@@H](C7=CC(=O)OC7)CC[C@]65O)C4)O[C@@H]3C)O[C@@H]2C)C[C@H](O)[C@@H]1O [Digoxin, digoxin]	UniProt P08183	5.67

---

# Tested on: P-gp
# TEST_NAME: Bidirectional digoxin Pgp transport across MDR-MDCK monolayers
# CONDITION_DETAILS: human, MDCK-MDR1, pH 7.4, Pgp transport, Papp B->A, Table 13 MDR1-MDCK control; 7 d in culture

SMILES_NOTATION	EXPERIMENTAL_SYSTEM	Papp B→A at 2 h, 10 µM
C[C@H]1O[C@@H](O[C@H]2[C@@H](O)C[C@H](O[C@H]3[C@@H](O)C[C@H](O[C@H]4CC[C@@]5(C)[C@H](CC[C@@H]6[C@@H]5C[C@@H](O)[C@]5(C)[C@@H](C7=CC(=O)OC7)CC[C@]65O)C4)O[C@@H]3C)O[C@@H]2C)C[C@H](O)[C@@H]1O	P-gp	12.6 ×10⁻⁶ cm/s

---

# Tested on: P-gp
# TEST_NAME: Bidirectional digoxin Pgp transport across MDCK monolayers
# CONDITION_DETAILS: dog, MDCK-MDR1, pH 7.4, Pgp transport, Papp B->A, Table 12 shipped overnight by air, 0.75% agarose medium basolateral only; 9 d in culture
READOUT_LABEL: Papp B→A at 2 h, 10 µM

SMILES_NOTATION	EXPERIMENTAL_SYSTEM	READOUT_LABEL	OBSERVED
C[C@H]1O[C@@H](O[C@H]2[C@@H](O)C[C@H](O[C@H]3[C@@H](O)C[C@H](O[C@H]4CC[C@@]5(C)[C@H](CC[C@@H]6[C@@H]5C[C@@H](O)[C@]5(C)[C@@H](C7=CC(=O)OC7)CC[C@]65O)C4)O[C@@H]3C)O[C@@H]2C)C[C@H](O)[C@@H]1O	P-gp	Papp B→A at 2 h, 10 µM	7.44 ×10⁻⁶ cm/s

---

# Tested on: human P-glycoprotein (PGP)
# TEST_NAME: Bidirectional digoxin Pgp transport across MDR-MDCK monolayers
# CONDITION_DETAILS: dog, MDCK-MDR1, pH 7.4, Pgp transport, Papp A->B, Table 6 shipped at 5 D, 0.5% agarose medium basolateral only; assayed 10 D
READOUT_LABEL: Papp A→B at 120 min, 10 µM (×10⁻⁶ cm/s)

SMILES_NOTATION	READOUT_LABEL	OBSERVED
C[C@H]1O[C@@H](O[C@H]2[C@@H](O)C[C@H](O[C@H]3[C@@H](O)C[C@H](O[C@H]4CC[C@@]5(C)[C@H](CC[C@@H]6[C@@H]5C[C@@H](O)[C@]5(C)[C@@H](C7=CC(=O)OC7)CC[C@]65O)C4)O[C@@H]3C)O[C@@H]2C)C[C@H](O)[C@@H]1O	Papp A→B at 120 min, 10 µM	0.21

---

# Test system: human P-glycoprotein (PGP)
# TEST_NAME: Bidirectional digoxin Pgp transport across MDR-MDCK monolayers
# CONDITION_DETAILS: dog, MDCK-MDR1, pH 7.4, Pgp transport, Papp A->B, shipped, 0.5% agarose medium apical only, Table 5 upper block c4; assayed 7 D

SMILES_NOTATION	Papp A→B at 120 min, 10 µM
C[C@H]1O[C@@H](O[C@H]2[C@@H](O)C[C@H](O[C@H]3[C@@H](O)C[C@H](O[C@H]4CC[C@@]5(C)[C@H](CC[C@@H]6[C@@H]5C[C@@H](O)[C@]5(C)[C@@H](C7=CC(=O)OC7)CC[C@]65O)C4)O[C@@H]3C)O[C@@H]2C)C[C@H](O)[C@@H]1O	0.07 ×10⁻⁶ cm/s

---

# Tested on: P-gp
# TEST_NAME: Bidirectional digoxin Pgp transport across MDR-MDCK monolayers
# CONDITION_DETAILS: human, MDCK-MDR1, pH 7.4, Pgp transport, Papp A->B, Table 13 MDR1-MDCK control; 7 d in culture

COMPOUND	Papp A→B at 2 h, 10 µM / ×10⁻⁶ cm/s
C[C@H]1O[C@@H](O[C@H]2[C@@H](O)C[C@H](O[C@H]3[C@@H](O)C[C@H](O[C@H]4CC[C@@]5(C)[C@H](CC[C@@H]6[C@@H]5C[C@@H](O)[C@]5(C)[C@@H](C7=CC(=O)OC7)CC[C@]65O)C4)O[C@@H]3C)O[C@@H]2C)C[C@H](O)[C@@H]1O [Digoxin, digoxin]	0.02

---

# Test system: human P-glycoprotein (PGP)
# TEST_NAME: Bidirectional digoxin Pgp transport across MDR-MDCK monolayers
# CONDITION_DETAILS: dog, MDCK-MDR1, pH 7.4, Pgp transport, Papp B->A, shipped, 0.5% agarose medium apical only, Table 5 upper block c2; assayed 7 D

SMILES_NOTATION	Papp B→A at 120 min, 10 µM [×10⁻⁶ cm/s]
C[C@H]1O[C@@H](O[C@H]2[C@@H](O)C[C@H](O[C@H]3[C@@H](O)C[C@H](O[C@H]4CC[C@@]5(C)[C@H](CC[C@@H]6[C@@H]5C[C@@H](O)[C@]5(C)[C@@H](C7=CC(=O)OC7)CC[C@]65O)C4)O[C@@H]3C)O[C@@H]2C)C[C@H](O)[C@@H]1O	6.19

---

# Test system: human P-glycoprotein (PGP)
# TEST_NAME: Bidirectional digoxin Pgp transport across MDR-MDCK monolayers
# CONDITION_DETAILS: dog, MDCK-MDR1, pH 7.4, Pgp transport, Papp B->A, shipped, 0.5% agarose medium basolateral only; assayed 7 D
READOUT_LABEL: Papp B→A at 120 min, 10 µM

SMILES_NOTATION	READOUT_LABEL	OBSERVED
C[C@H]1O[C@@H](O[C@H]2[C@@H](O)C[C@H](O[C@H]3[C@@H](O)C[C@H](O[C@H]4CC[C@@]5(C)[C@H](CC[C@@H]6[C@@H]5C[C@@H](O)[C@]5(C)[C@@H](C7=CC(=O)OC7)CC[C@]65O)C4)O[C@@H]3C)O[C@@H]2C)C[C@H](O)[C@@H]1O	Papp B→A at 120 min, 10 µM	6.09 ×10⁻⁶ cm/s

---

# Tested on: P-gp
# TEST_NAME: Bidirectional digoxin Pgp transport across MDCK monolayers
# CONDITION_DETAILS: dog, MDCK-MDR1, pH 7.4, Pgp transport, Papp A->B, Table 12 shipped overnight by air, 0.75% agarose medium basolateral only; 9 d in culture
READOUT_LABEL: Papp A→B at 2 h, 10 µM (×10⁻⁶ cm/s)

MOLECULE	OBSERVED
C[C@H]1O[C@@H](O[C@H]2[C@@H](O)C[C@H](O[C@H]3[C@@H](O)C[C@H](O[C@H]4CC[C@@]5(C)[C@H](CC[C@@H]6[C@@H]5C[C@@H](O)[C@]5(C)[C@@H](C7=CC(=O)OC7)CC[C@]65O)C4)O[C@@H]3C)O[C@@H]2C)C[C@H](O)[C@@H]1O [Digoxin, digoxin]	0.16

---

# Test system: P-gp
# TEST_NAME: Bidirectional digoxin Pgp transport across MDR-MDCK monolayers
# CONDITION_DETAILS: human, MDCK-MDR1, pH 7.4, Pgp transport, Papp B->A, Table 13 MDR1-MDCK shipped overnight by air, 0.75% agarose medium basolateral only; 10 d in culture

SMILES_NOTATION	UNIT_NAME	Papp B→A at 2 h, 10 µM
C[C@H]1O[C@@H](O[C@H]2[C@@H](O)C[C@H](O[C@H]3[C@@H](O)C[C@H](O[C@H]4CC[C@@]5(C)[C@H](CC[C@@H]6[C@@H]5C[C@@H](O)[C@]5(C)[C@@H](C7=CC(=O)OC7)CC[C@]65O)C4)O[C@@H]3C)O[C@@H]2C)C[C@H](O)[C@@H]1O	×10⁻⁶ cm/s	20.1
